Values compiled from patent US20220162323A1.

# TESTED TARGET: T1, FGFR2b on SNU-16 and MFM-223 cells (human, UniProt P21802 22-821)
# T1 chain: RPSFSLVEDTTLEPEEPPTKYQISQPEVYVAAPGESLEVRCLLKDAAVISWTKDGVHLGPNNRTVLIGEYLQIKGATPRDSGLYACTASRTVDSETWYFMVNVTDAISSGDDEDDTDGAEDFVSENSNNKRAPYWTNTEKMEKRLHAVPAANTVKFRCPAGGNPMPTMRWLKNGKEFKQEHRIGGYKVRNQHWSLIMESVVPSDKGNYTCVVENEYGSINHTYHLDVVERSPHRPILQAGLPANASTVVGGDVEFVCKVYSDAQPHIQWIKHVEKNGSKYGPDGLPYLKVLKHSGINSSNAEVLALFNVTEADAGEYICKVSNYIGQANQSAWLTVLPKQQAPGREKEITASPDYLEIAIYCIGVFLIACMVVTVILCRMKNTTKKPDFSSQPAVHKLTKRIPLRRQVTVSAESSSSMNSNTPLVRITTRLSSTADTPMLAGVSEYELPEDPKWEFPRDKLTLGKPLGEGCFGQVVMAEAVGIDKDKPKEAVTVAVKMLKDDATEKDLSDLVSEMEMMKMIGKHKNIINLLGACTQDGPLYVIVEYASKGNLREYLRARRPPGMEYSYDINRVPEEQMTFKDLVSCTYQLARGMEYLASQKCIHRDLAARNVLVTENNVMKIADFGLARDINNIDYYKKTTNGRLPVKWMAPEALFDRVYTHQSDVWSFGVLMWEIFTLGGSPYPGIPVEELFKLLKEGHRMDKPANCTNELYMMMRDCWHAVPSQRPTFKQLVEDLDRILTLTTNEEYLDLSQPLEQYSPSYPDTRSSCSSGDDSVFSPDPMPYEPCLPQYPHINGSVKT
# METHOD DESCRIPTION: cell-based or functional assay
QUANTITY: Max % Kill, SNU-16 cells
Value and unit, in that order.

Query: Recorded Max % Kill, SNU-16 cells for mAb2-maytansinoid 1ALP (antibody, V domains shown, maytansinoid 1ALP (mc-VC-PAB-NMe-C3-May) linker-payload conjugated; residues not stated in Example 5; DAR 1.9 per antibody, it is written on the heavy chain only for want of a better place; also called FGFR2 maytansinoid ADC) VH: QVQLVESGGGVVQPGKSLRLSCAASGFTFSNYGMHWVRQTPVKGLEWVTLIWYDGSNKYYTDSVKGRFTISRDNSKNTLYLQMNSLRSEDTAVYYCAREGNWNYGHAFDIWGQGTMVTVSS VL: DIQMTQSPSTLSASVGDRVTITCRASQNIGNWLAWYQQKPGKAPNLLIYKASTLESGVPSRFSGSGSGTEFTLTISSLQPDDFATYNCQQYNSYSPTFGQGTKLEIKR , please?
Reply: 95%
